- System: SK-MEL-5 melanoma
- test_method_notes: NCI tumour cell line growth inhibition, 48 h
Each record here notes measured TGI.

Ask | Tell me TGI reported for CCCCCCCCC#CCCCCCCC(F)C(=O)O (stereo unspecified)
Reply | > 100 µM

Ask | Tell me TGI reported for `COC(=O)c1cc2c3cc(Cl)ccc3[nH]c2c2ncccc12`
Reply | > 100 µM

Ask | Tell me TGI reported for O=C1C2C3C=CC(C2C(=O)N1CN1CCOCC1)C1C2C(=O)N(CN4CCOCC4)C(=O)C2C31 (stereo unspecified)
Reply | > 58 µM

Ask | Tell me TGI reported for `CCN1C(c2ccccc2)=CC(c2ccccc2)(C(Cl)(Cl)Cl)C=C1c1ccccc1`
Reply | 4.46 µM

Ask | Tell me TGI reported for `O=c1oc2cc(O)ccc2cc1-c1nc2ccccc2o1`
Reply | 40.8 µM

Continuing:
Ask | Tell me TGI reported for `c1ccc2c(c1)n1c(N3CCCC3)[n+]3ccccc3c1c1c3cccc[n+]3c(N3CCCC3)n21`
Reply | 65.8 µM

Ask | Tell me TGI reported for `CCn1cnc(C[C@H](NC(=O)[C@@H](NC(=O)Nc2cc(C(F)(F)F)cc(C(F)(F)F)c2)C(C)(C)C)C(=O)OC)c1`
Reply | > 10 µM

Numbers sourced from PubChem BioAssay (NCI).
